# target.entity: T1, recombinant human IGF-1R (rhIGF-1R) (human, UniProt P08069 31-935)
# T1 construct: extracellular domain; Coated on plates in the DELFIA assay and Eu3+ (LANCE) labeled in the TR-FRET assays
# protocol.summary: TR-FRET; competitor against 15 nM b-20E2 on Eu-labeled rhIGF-1R
readout.name: IC50 (nM)
Report the value in nM with no unit label.

Task item: Using the record for FHENFYDWFVRQVSKK [H2C (D117)] , report its IC50.
Reply: 460

Cited source: patent US20070265189A1
